Biological target: Dual specificity tyrosine-phosphorylation-regulated kinase 2 (Homo sapiens, UniProt Q92630)
Sequence (Q92630 whole entry): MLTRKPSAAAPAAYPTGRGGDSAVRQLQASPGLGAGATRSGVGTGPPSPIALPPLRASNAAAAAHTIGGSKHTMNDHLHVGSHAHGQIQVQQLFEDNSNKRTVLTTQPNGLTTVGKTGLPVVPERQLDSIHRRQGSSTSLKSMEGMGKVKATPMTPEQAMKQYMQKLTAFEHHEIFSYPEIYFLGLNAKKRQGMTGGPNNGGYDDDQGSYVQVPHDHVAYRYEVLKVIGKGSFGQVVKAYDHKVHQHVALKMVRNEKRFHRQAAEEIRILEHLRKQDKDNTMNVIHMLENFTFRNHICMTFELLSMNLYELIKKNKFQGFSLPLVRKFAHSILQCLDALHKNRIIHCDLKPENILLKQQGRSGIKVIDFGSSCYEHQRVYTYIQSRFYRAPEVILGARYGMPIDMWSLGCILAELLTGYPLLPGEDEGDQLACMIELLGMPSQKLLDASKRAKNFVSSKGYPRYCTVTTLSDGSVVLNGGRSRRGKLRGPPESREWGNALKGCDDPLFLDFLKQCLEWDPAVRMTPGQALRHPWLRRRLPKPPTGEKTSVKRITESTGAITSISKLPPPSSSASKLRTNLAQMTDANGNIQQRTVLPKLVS
// reported log10 of IC50 for each item listed
recorded metric: log10 of IC50 (log10 of the value in nM)

molecule	log10 of IC50
O=C1NC(Nc2ncccn2)=N/C1=C\c1ccc2ncsc2c1	3.38
COC(=O)[C@H](CC(C)C)NC1=N/C(=C\c2ccc3ncsc3c2)C(=O)N1	2.96
O=C1NC(NC2CCCC(F)(F)C2)=N/C1=C\c1ccc2ncsc2c1 (racemic)	2.59
O=C1NC(NC2CCCCC2)=N/C1=C\c1ccc2[nH]cnc2c1	3.52
O=C1NC(NC23CC4CC(CC(C4)C2)C3)=N/C1=C\c1ccc2[nH]cnc2c1	1.71
O=C1NC(N[C@H]2CC[C@H](O)CC2)=N/C1=C\c1ccc2ncsc2c1	2.80
O=C1NC(NC2CCCCC2)=N/C1=C\c1ccc2ncsc2c1	2.80
COC(=O)[C@@H](Cc1ccccc1)NC1=N/C(=C\c2ccc3ncsc3c2)C(=O)N1	3.92
O=C1NC(NC[C@H](O)c2ccccc2)=N/C1=C\c1ccc2ncsc2c1	2.62
COC(=O)[C@@H](NC1=N/C(=C\c2ccc3ncsc3c2)C(=O)N1)C(C)C	2.52
CC[C@H](CO)NC1=N/C(=C\c2ccc3ncsc3c2)C(=O)N1	3.19
CC(C)C[C@H](COCc1ccccc1)NC1=N/C(=C\c2ccc3ncsc3c2)C(=O)N1	2.98
CN1CCCC(NC2=N/C(=C\c3ccc4ncsc4c3)C(=O)N2)C1 (racemic)	3.68
CC(=O)N1CCc2ccc(NC3=N/C(=C\c4ccc5ncsc5c4)C(=O)N3)cc21	2.41
O=C1NC(NC(CF)c2ccccc2)=N/C1=C\c1ccc2ncsc2c1 (racemic)	2.72
O=C1NC(NC2CCCCCC2)=N/C1=C\c1ccc2[nH]ncc2c1	3.27
CC(C)[C@@H]1CC[C@@H](C)C[C@H]1NC1=N/C(=C\c2ccc3ncsc3c2)C(=O)N1	3.99
O=C1NC(N[C@H]2CCCOC2)=N/C1=C\c1ccc2ncsc2c1	2.04
O=C1NC(NC2CC3CCC2C3)=N/C1=C\c1ccc2ncsc2c1 (racemic)	2.38
O=C1NC(NC2CCCCCC2)=N/C1=C\c1ccc2c(c1)OCO2	3.71
CN1CCC(NC2=N/C(=C\c3ccc4ncsc4c3)C(=O)N2)C1=O (racemic)	3.45
CC(=O)OC12CC3CC(CC(NC4=N/C(=C\c5ccc6ncsc6c5)C(=O)N4)(C3)C1)C2	2.16
CC(C)C[C@H](CF)NC1=N/C(=C\c2ccc3ncsc3c2)C(=O)N1	2.64
CC1(C)CCC(NC2=N/C(=C\c3ccc4ncsc4c3)C(=O)N2)CO1 (racemic)	2.41
O=C1NC(NCc2ccccc2)=N/C1=C\c1ccc2ncsc2c1	3.08
Cc1nc2ccc(/C=C3\N=C(NC45CC6CC(CC(C6)C4)C5)NC3=O)cc2s1	2.82
Cn1ncc2cc(/C=C3\N=C(NC45CC6CC(CC(C6)C4)C5)NC3=O)ccc21	2.56
Cc1ccc(CNC2=N/C(=C\c3ccc4ncsc4c3)C(=O)N2)o1	3.28
O=C1NC(N[C@@H]2CCCC[C@@H](O)C2)=N/C1=C\c1ccc2ncsc2c1 (racemic)	2.41
